Molecular target: T1, human PVRIG (Poliovirus Receptor Related Immunoglobulin Domain Containing Protein), full length on cells (human, UniProt Q6DKI7 41-326)
T1 construct: whole, on cells; Over-expressed on HEK293 (some pools flag-tagged) or endogenous on Jurkat, CA46, T cells, NK cells, TILs; also called hPVRIG; HEK hPVRIG
T1 sequence (looked up): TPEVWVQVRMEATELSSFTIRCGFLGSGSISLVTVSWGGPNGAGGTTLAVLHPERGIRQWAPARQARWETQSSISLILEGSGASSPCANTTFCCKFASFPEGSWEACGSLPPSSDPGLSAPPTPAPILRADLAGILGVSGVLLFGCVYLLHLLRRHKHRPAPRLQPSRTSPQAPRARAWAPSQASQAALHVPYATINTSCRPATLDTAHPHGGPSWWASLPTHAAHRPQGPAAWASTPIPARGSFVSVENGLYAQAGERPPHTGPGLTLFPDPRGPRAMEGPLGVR
Assay: FACS dose titration on PVRIG over-expressing HEK293 cells
Readout: Kd
The number alone won't do; follow it with the unit.

Example cases with answers are listed next.
| Binder | Kd |
| --- | --- |
| CPA.7.049 human IgG1 (antibody, V domains shown) VH: QMQLVQSGAEVKKPGSSVKVSCKASGGTFSSSAISWVRQAPGQGFEWMGGIIPIYGITDYAQKFQGRVTITTDESTSTAYMELSSLTSEDTAVYYCARDDTARRVRGVPYYYYYAMDVWGQGTTVTVSS VL: DIVMTQTPLSLPVTPGEPASMSCRSSRSLLDSDDGNTHLDWYLQKPGQSPQLLIQSLSYRASGVPDRFSGSGSGTDFTLEISRVEAEDVGIYYCMQRKEFPLTFGGGTKVEIKR | 19.9 nM |
| CPA.7.015 human IgG1 (antibody, V domains shown) VH: QITLKESGGGVVQPGGSLRLSCAASGFTFSSYGMHWVRQAPGKGLEWVAFIRYDGSNKYYADSVKGRFTISRDNSKNTLYLQMNSLRAEDTAVYYCARDLFDFWWDGMDVWGQGTTVTVSS VL: EIVLTQSPGTLSLSPGEKATLSCRVSQSVSSMYLAWYQQKPGQAPRLLIYGASYRATGIPDRFSGSGSGTDFNLTISRLEPEDFAVYYCQQYVSSPMYTFGLGTKLEIKR | 1.34 nM |

Record request: Kd value, item CPA.7.010 human IgG1 (antibody, V domains shown) VH: EVQLVESGGGLVQPGRSLRLSCAASGFTFSSYAMHWVRQAPGKGLEWVAVISYDGSNKYYADSVKGRFTISRDNSKNTLYLQMNSLRAEDTAVYYCASSPIGYSYGYWGGMDVWGQGTTVTVSS VL: QAVLTQPASLSASPGASASLTCTLRSGIDVRTNKIFWYQVKPGSPPQHLLTFQSDSDKQQGSGVPSRFSGSKDASANAGILIISGLQSEDEADYYCLIWHTSGWVFGGGTQLTVLG 21.9 nM

Numbers sourced from patent US20200385445A1.
